Data credit: ChEMBL document CHEMBL1125836

biological target: Platelet-activating factor receptor (Rattus norvegicus); assay: Activity expressed as the dose required to reduce the lowering of the arterial blood pressure caused by PAF by 50%; assay type: functional; details: Artery
For each entry below, report its ID50 value.

For record CCCCCCCCCCCCCCCCCCOCC1OCC(COC(=O)N(Cc2cccc[n+]2CC)C(C)=O)O1 (centres undefined) the listed ID50 is 0.041 mg/kg

The compound listed as CCCCCCCCCCCCCCCCOCC1COC(COC(=O)N(C(C)=O)c2cc[n+](CC)cc2)C1 (centres undefined) shows ID50 equal to > 5 mg/kg

Notebook: CCCCCCCCCCCCCCCCCCC1COC(COC(=O)N(Cc2cccc[n+]2CC)C(C)=O)C1 (centres undefined) , ID50 read as 0.23 mg/kg

// sample CCCCCCCCCCCCCCCCCC1OCC(COCCCCCC[n+]2cscc2C)O1 (centres undefined) , its ID50 was 3.1 mg/kg

The reported ID50 of the compound CCCCCCCCCCCCCCOCC1COC(COCCCCCC[n+]2ccsc2)C1 (centres undefined) was 3.1 mg/kg

# compound CCCCCCCCCCCCCCCCOCC1OCC(COC(=O)CCCCC[n+]2ccsc2)O1 (centres undefined) ; its ID50 = 1.1 mg/kg

response.value for CCCCCCCCCCCCCCCCCC1OCC(COCCCCCC[n+]2cccc3ccccc32)O1 (centres undefined) (field: ID50) = 3.8 mg/kg

Measured ID50 of CCCCCCCCCCCCCCC1COC(COP(=O)([O-])OCC[N+](C)(C)C)C1 (centres undefined) : > 5 mg/kg

The compound identified as CCCCCCCCCCCCCCCNC(=O)OCC1CC(COC(=O)N(Cc2cccc[n+]2CC)C(C)=O)CO1 (centres undefined) registered its ID50 at 0.049 mg/kg

Recorded ID50 (compound CCCCCCCCCCCCCCCCCC1OCC(COP(=O)([O-])OCC[N+](C)(C)C)O1 (centres undefined) ): > 5 mg/kg

Sure, the documented ID50 for CCCCCCCCCCCCCCCCCC1CC(COC(=O)N(Cc2cccc[n+]2CC)C(C)=O)CO1 (centres undefined) is 0.052 mg/kg

The compound listed as CCCCCCCCCCCCCCC1COC(COCCCC[n+]2ccsc2)C1 (centres undefined) shows ID50 equal to > 5 mg/kg

Just so you know, measured ID50 for CCCCCCCCCCCCCCCCOCC1OCC(COCCCC[n+]2ccsc2)O1 (centres undefined) came out at 2.7 mg/kg

Record CCCCCCCCCCCCCCCCCC1OCC(COCCCCCC[n+]2ccccc2)O1 (centres undefined) , field ID50: > 5 mg/kg

Form field ID50, entry CCCCCCCCCCCCCCCCCCOCC1COC(COC(=O)NCc2cc[n+](CC)cc2)C1 (centres undefined) : > 5 mg/kg

Summary for this compound, CCCCCCCCCCCCCCCCOCC1COC(COC(=O)N(Cc2cccc[n+]2C)C(C)=O)C1 (centres undefined) : ID50 is 0.24 mg/kg

Looking up CCCCCCCCCCCCCCCCOCC1COC(COC(=O)NCc2cccc[n+]2CC)C1 (centres undefined) , I see its ID50 listed as > 5 mg/kg

The compound listed as CCCCCCCCCCCCCCCC1CCC(COC(=O)N(Cc2cccc[n+]2CC)C(C)=O)O1 (centres undefined) shows ID50 equal to 0.15 mg/kg

Kindly note the recorded ID50 for CCCCCCCCCCCCCCC1COC(COCCCCCCC[n+]2ccsc2)C1 (centres undefined) , which is 1.5 mg/kg

Per the records, this compound ( CCCCCCCCCCCCCCCCCC1OCC(COCCCCCC[N+](C)(C)C)O1 (centres undefined) ) has ID50 equal to > 5 mg/kg

ID50 recorded for this compound, CCCCCCCCCCCCCCCCCCCC1OCC(COC(=O)CCCCC[n+]2ccsc2)O1 (centres undefined) , is 5.1 mg/kg

Sure, the documented ID50 for CCCCCCCCCCCCCCCCOCC1OCC(COCCCCCC[n+]2ccsc2)O1 (centres undefined) is 1.8 mg/kg

# ID50 (compound: CCCCCCCCCCCCCCCNC(=O)OCC1CC(COC(=O)N(Cc2cccc[n+]2CC)C(C)=O)CO1 (stereo in doubt; form 1) ) is 0.057 mg/kg

The value of ID50 measured for the compound CCCCCCCCCCCCCCCCCCOCC1CC(COCCCCC[n+]2ccsc2)CO1 (centres undefined) turned out to be 2.5 mg/kg

GET /value?item= CCCCCCCCCCCCCCCCCC1OCC(COCCCCCC[N+]2(C)CCOCC2)O1 (centres undefined) &field=ID50 returns > 5 mg/kg

Looking up CCCCCCCCCCCCCCCCCCOCC1COC(COC(=O)N(Cc2cc[n+](CC)cc2)C(C)=O)C1 (centres undefined) , I see its ID50 listed as 1.6 mg/kg

CCCCCCCCCCCCCCCCCC1COC(COC(=O)N(Cc2cccc[n+]2CC)C(C)=O)O1 (centres undefined) has a reported ID50 of 0.074 mg/kg

Summary for this compound, CCCCCCCCCCCCCCCCC1COC(COCCCCCCC[n+]2ccsc2)C1 (centres undefined) : ID50 is 2 mg/kg

Note to self: ID50 recorded for CCCCCCCCCCCCCCCC1CCC(COCCCCCC[n+]2ccsc2)O1 (centres undefined) was 2 mg/kg

// sample CCCCCCCCCCCCCC1OCC(COC(=O)CCCCC[n+]2ccsc2)O1 (centres undefined) , its ID50 was > 5 mg/kg

Given item CCCCCCCCCCCCCCOCC1COC(COC(=O)N(Cc2cccc[n+]2CC)C(C)=O)C1 (centres undefined) , the value recorded as its ID50 is 0.087 mg/kg

// CCCCCCCCCCCCCCCCOCC1COC(COCCCCCC[n+]2ccsc2)C1 (centres undefined) : ID50 value = 1.2 mg/kg

// recorded ID50 for CCCCCCCCCCCCCCCCCC1OCC(COC(=O)N(Cc2cccc[n+]2CC)C(C)=O)O1 (centres undefined) : 0.24 mg/kg

Quick note, ID50 for CCCCCCCCCCCCCCCNC(=O)OCC1CC(COC(=O)N(Cc2cccc[n+]2CC)C(C)=O)CO1 (stereo in doubt; form 2) landed at 0.042 mg/kg

Form: compound = CCCCCCCCCCCCCCOCC1COC(COC(=O)N(Cc2cccc[n+]2CC)C(C)=O)O1 (centres undefined) ; ID50 = 0.2 mg/kg

The recorded ID50 for entry CCCCCCCCCCCCCCCCOCC1CC(COCCCCCC[n+]2ccsc2)CO1 (centres undefined) equals 1.8 mg/kg

Lab book: ID50 of CCCCCCCCCCCCCCC1COC(COCCCCCC[n+]2ccsc2)C1 (stereo in doubt; form 1) noted as 2.5 mg/kg

GET /value?item= CCCCCCCCCCCCCCCCOCC1COC(COC(=O)N(CCc2cccc[n+]2CC)C(C)=O)C1 (centres undefined) &field=ID50 returns > 5 mg/kg

Lab note: CCCCCCCCCCCCCCC1COC(COCCCCCC[N+](C)(C)C)C1 (centres undefined) gave ID50 of > 5 mg/kg
